# Tested on: GP5d (Colorectal Carcinoma)
# method: combination Emax (second highest fraction inhibited in the dose matrix, 72 h); higher = more inhibition; extreme values may be limits of the assay

{"compound": "CC(=O)Nc1cccc(-n2c(=O)n(C3CC3)c(=O)c3c(Nc4ccc(I)cc4F)n(C)c(=O)c(C)c32)c1 [Trametinib] + Cc1nc(-c2cn3c(n2)-c2ccc(-c4cnn(C(C)(C)C(N)=O)c4)cc2OCC3)n(C(C)C)n1 [Taselisib] (first compound max 1 µM, 7x7, partner max 10 µM)", "combination Emax": 0.907}
{"compound": "CC(=O)c1c(C)c2cnc(Nc3ccc(N4CCNCC4)cn3)nc2n(C2CCCC2)c1=O [Palbociclib] + CC1(C)CCC(CN2CCN(c3ccc(C(=O)NS(=O)(=O)c4ccc(NCC5CCOCC5)c([N+](=O)[O-])c4)c(Oc4cnc5[nH]ccc5c4)c3)CC2)=C(c2ccc(Cl)cc2)C1 [Venetoclax] (first compound max 10 µM, 7x7, partner max 1 µM)", "combination Emax": 0.31}
{"compound": "NC1(C(=O)N[C@@H](CCO)c2ccc(Cl)cc2)CCN(c2ncnc3[nH]ccc23)CC1 [Capivasertib] + COc1nnc2ccc(N3CCC(c4ccc(OCCN5CCN(C)C(=O)[C@H]5C)cc4)CC3)nn12 [AZD5153] (first compound max 10 µM, 7x7, partner max 1 µM)", "combination Emax": 0.873}

Origin of measurements: the supplement of paper PMC11061612
